assay: IANBD-channel fluorescence artefacts in buffer – biochemical, artefact control for cardiac RTF calcium sensitizer project, confirmation (AID 504382); settings: IANBD fluorescence interference counterscreen, EC20 Ca2+, at 7.2 µM, scaled: EC20 calcium 0, EC100 calcium 100
Out of some 2,500 compounds screened, about 460 (18%) were called active.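 How the source made its calls: active means mean activation above a cutoff of low control average plus 3 SD from the earlier screen (cut at about 12% in these data); inactive means the rest.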 Only a sample is shown.
Lab note: assign the record to one of active, inactive

Please let me know the test result on file for "CCOC(=O)COn1c(=O)c(-c2cc3ccccc3o2)[n+]([O-])c2ccccc21" .
inactive

What classification did "N=C1c2ccccc2CN1c1ccc(S(=O)(=O)N2CCCCC2)cc1" end up with in this test?
inactive

Entry "COc1cccc(S(=O)(=O)Nc2cccc(C(=O)N3CCCCCC3)c2)c1" : call = ?
inactive

Given "O=C(NCc1ccc(Cl)cc1)C1CCN(c2cnccn2)CC1" , state the outcome it received in this test.
active

Fill in: this test's call for "Cc1cc(C)c(S(=O)(=O)Nc2ccc3[nH]c(=O)[nH]c3c2)c(C)c1" is ___
inactive

Called result for "Cc1cccc(N2C(=O)c3cccc4c(N(C)CCO)ccc(c34)C2=O)c1"
inactive

Name the outcome recorded for "CC/C(=N/Nc1cccc(C)c1)c1cnnc(SC)n1" in the assay.
inactive

Called result for "O=S(=O)(Nc1nc2ccccc2nc1N1CCN(c2ccccn2)CC1)c1ccc(Cl)cc1"
inactive

Recorded test outcome, item CCOC(=O)C1=C(C)N=c2s/c(=C/c3ccc(OCC(=O)O)c(OC)c3)c(=O)n2C1c1ccc(Cl)cc1 (stereo not drawn)
inactive

For "Cc1cc(/C=N/NC(N)=S)c(O)c(/C=N/NC(N)=S)c1" , which call appears in the assay record?
active

Dear colleague, could you share the recorded outcome for COc1cccc2c1C(=O)c1c(O)c3c(c(O)c1C2=O)CC(O)(C(=O)CO)CC3OC1CC(N(C)C)C(O)C(C)O1 (stereo not drawn) when you have a moment?
active

How did this test come out for "COc1cc(/C=C2\SC(=O)NC2=O)ccc1Oc1ccc([N+](=O)[O-])cn1" ?
active

Test call for this compound, please: CC1(C)C2CCC(C2)C1(C)N=C1OC(CCl)CS1 (stereo not drawn)
inactive

Outcome logged for "C[C@H](O)C(=O)C1=Nc2c(nc(N)[nH]c2=O)NC1" in this assay:
inactive

Field: outcome | Entry: CCOC(=O)C1CCCN(C(=O)c2cccc(S(=O)(=O)N3CC(C)OC(C)C3)c2)C1 (stereo not drawn)
inactive

Hi team, can someone confirm the assay call for COc1cccc2c1C(=O)c1c(O)c3c(c(O)c1C2=O)CC(O)(C(C)=O)CC3OC1CC(O)C(O)C(C)O1 (stereo not drawn) ?
active

Hi, do you know how Cc1ccc(Cn2nc(C)c(NC(=O)C3(C)CC3(Br)Br)c2C)cc1 (stereo not drawn) came out in this test?
inactive

Dear colleague, could you share the recorded outcome for "CC(=O)c1cccc(NC(=S)NC2CCCCC2)c1" when you have a moment?
inactive

Assay result, entry "NS(=O)(=O)c1cccc(NC(=O)CCc2ccc(S(=O)(=O)N3CCOCC3)cc2)c1" — outcome?
active

Returns: the outcome recorded for "COC(=O)CCCNC(=O)CCc1nnc(-c2ccc(-c3ccccc3)cc2)o1" in this assay.
inactive

Kindly provide the recorded test outcome for the following compound: "CC(C)c1ccc(/C=C2\Oc3c(ccc(O)c3CN3CCN(C)CC3)C2=O)cc1"
inactive

GET /call?item= "O=C(C[n+]1cccc2ccccc21)c1ccccc1" returns the recorded outcome of this test.
inactive

Per the records of this test, what outcome belongs to "CCc1ccc(C2C(C#N)=C(N)SC(N)=C2C#N)s1" ?
inactive

Lab log entry: "OCCc1c[nH]c2ccccc12" — outcome as called in the assay?
inactive

I would be grateful if you could indicate the recorded call for "COC(=O)C[n+]1cccc2ccccc21" .
active

# fetch the recorded call for "COc1cccc2c1C(=O)c1c(O)c3c(c(O)c1C2=O)C[C@](O)(C(C)=O)C[C@H]3O[C@@H]1C[C@@H](N)[C@@H](O)[C@@H](C)O1" here
inactive

Kindly provide the recorded test outcome for the following compound: "Cc1ccc(S(=O)(=O)Nc2nc3ccccc3nc2NCc2ccco2)cc1"
inactive

What did the test return for "O=C(CN1CCN(c2ccccc2)CC1)Nc1cccc(C(F)(F)F)c1" ?
inactive

Kindly provide the recorded test outcome for the following compound: "O=C(NCCc1ccccc1)C1CCN(c2ncccn2)CC1"
inactive

For "CN1CCCN(Cc2cccc3ccccc23)CC1" , what call appears in the results of this test?
inactive

Per the assay record, what outcome was assigned to "N#C/C(=C\N1CCN(Cc2ccc3c(c2)OCO3)CC1)c1nc2ccccc2s1" ?
inactive

Record lookup: outcome of this test for "O=C(CCc1ccc(S(=O)(=O)N2CCOCC2)cc1)OCC(=O)c1ccccc1" ?
inactive

Tell me the recorded outcome of this test for "CC(=O)C1=C(O)CCCC1=NCc1nc2ccccc2[nH]1" .
inactive

// return assay outcome for "Cc1ccc(-c2nc(N)sc2CC(=O)OCC(=O)NCCC(C)C)cc1"
inactive

Look up the recorded call for "COc1ccc(/C=C2\SC(=O)NC2=S)cc1OC" in this test.
inactive

Hey, what did the test say about CSc1ccc(C2NC(=O)c3c(sc4c3CCN(C)C4)N2)cc1 (stereo not drawn) ?
inactive

Can you look up the reported call for "O=S(=O)(Nc1nc2ccccc2nc1NCCO)c1cccc(Cl)c1" for me?
active

// return assay outcome for Cc1cc2nc(C3CCCN(C(=O)NCc4ccccc4)C3)[nH]c2cc1C (stereo not drawn)
inactive

What classification did "COc1ccccc1CNC(=O)COC(=O)c1cccc(S(=O)(=O)N2CCOCC2)c1" end up with in this test?
inactive

What did the test return for "O=S(=O)(c1ccc(NC(=S)Nc2ccccc2)cc1)N1CCOCC1" ?
inactive

Lab log entry: CC1CN(c2ccc(NS(=O)(=O)c3ccccc3)cc2C(=O)O)CC(C)O1 (stereo not drawn) — outcome as called in the assay?
active

What classification did "COc1ccc(-c2nn(-c3ccccc3)cc2/C=N/NC(N)=S)cc1OC" end up with in this test?
inactive

Returns: the outcome recorded for "Cc1ccc(NC(=O)COC(=O)/C=C/c2c(C)nn(-c3ccc(F)cc3)c2Cl)cc1F" in this assay.
inactive

----------
test: IANBD-channel fluorescence artefacts in buffer – biochemical, artefact control for cardiac RTF calcium sensitizer project, confirmation (AID 504382); settings: IANBD fluorescence interference counterscreen, EC20 Ca2+, at 7.2 µM, stronger effect = higher value, scaled: EC20 calcium 0, EC100 calcium 100
Screen size: about 2,500 compounds; about 460 (18%) were called active. Not all results are given here.
ASSAY_ENDPOINT: fluorescence artifact activation (%)
Field: numeric (%). Do not append units.

So what's the measured fluorescence artifact activation for this one? "COc1ccccc1NC(=O)/C=C/C(=O)O"
0.29

# get_value(readout='fluorescence artifact activation', item= "C[C@H]1CN([C@@H](C)CO)C(=O)Cc2cc(NC(=O)CCC(F)(F)F)ccc2O[C@H]1CN(C)S(C)(=O)=O" )
0.55

GET /values?readout=fluorescence artifact activation&item= CCC(c1nnnn1C1CCCCC1)N1CCN(C(=O)c2ccco2)CC1 (stereo not drawn)
6.69

Requested field: fluorescence artifact activation. Item: COc1ccc(S(=O)(=O)N(CC(C)C)C2CCS(=O)(=O)C2)cc1OC (stereo not drawn)
2.69

Using the record for "COc1ccc(-[n+]2c(C)cc(/C=C3\Sc4ccccc4N3C)cc2C)cc1" , report its fluorescence artifact activation.
50.7

Reported fluorescence artifact activation for "COc1cc2c(cc1OC)-c1cc3ccc4c(c3c[n+]1CC2)OCO4" : what is it?
0.19

Need fluorescence artifact activation of "CCOC(=O)c1ccc(NC(=O)c2cc3c(C)nn(-c4ccccc4Cl)c3s2)s1" , thanks.
1.59

fluorescence artifact activation for "COc1ccccc1-[n+]1c(C)cc(/C=C2\Sc3ccccc3N2C)cc1C" ?
0.15

# input molecule: "COc1ccc(CC/C(C)=N\NC(N)=O)cc1" ; wanted: its fluorescence artifact activation
1.07

// returns reported fluorescence artifact activation for input "O=C(NCc1cccc(F)c1)c1cccc2c1C(=O)c1ccc(N3CCC(Cc4ccccc4)CC3)cc1S2(=O)=O"
3.97

Can you share its fluorescence artifact activation? I mean this molecule: "O=c1c(/C=N/Nc2ccccc2)c(Sc2nnnn2-c2ccccc2)nc2ccccn12"
-0.06

Looking for the measured fluorescence artifact activation of O=C(NC(NC(=S)Nc1ccccc1C(=O)O)C(Cl)(Cl)Cl)c1ccco1 (stereo not drawn) , can you help?
0

What value of measured fluorescence artifact activation is listed for CSCCC(NC(=O)c1ccccc1Cl)C(=O)N1CCC1 (stereo not drawn) ?
-0.06

Any idea what its fluorescence artifact activation is? The molecule is "COc1ccc(C(=O)Nc2cc(C(C)=O)c(/C=C/N(C)C)oc2=O)cc1"
9.8

Recorded fluorescence artifact activation for "CN1CCc2c(sc(/N=C/c3cccs3)c2C(N)=O)C1" , please?
-0.06

Need fluorescence artifact activation of "O=C(Nc1cccc2c1N(C(=O)c1ccco1)CCC2)c1ccco1" , thanks.
5.02

Could you tell me which fluorescence artifact activation is on file for "Nc1c(C(=O)C2CC2)sc2nc(-c3ccccc3)cc(C(F)(F)F)c12" ?
8.48

Tell me the measured fluorescence artifact activation of "COc1cc2cc(CN(Cc3cccnc3)C(=O)NCc3ccccc3)c(=O)[nH]c2cc1OC" , please.
116

What value of fluorescence artifact activation has been reported for the following molecule? "CCCN1CCc2c(sc(NC(=S)NC(=O)c3ccccc3)c2C#N)C1"
11.1

Would you mind telling me what fluorescence artifact activation value was observed for "O=C(NCc1cccc(C(F)(F)F)c1)c1cccc2c1C(=O)c1ccc(N3CCC(Cc4ccccc4)CC3)cc1S2(=O)=O" ?
0.26

// fluorescence artifact activation lookup, key: "CCOC(=O)/C(=C/C=C1\Sc2ccccc2N1CC)C(C)=O"
51.3

So what does the record say about fluorescence artifact activation for "C(=N\Nc1nnnn1-c1ccccc1)/c1ccncc1" ?
0.02

Entry CCCCC1=CC2=C(c3ccco3)C(=O)C(C)(OC(=O)c3ccc(OC)cc3)C(=O)C2=CN1CCc1ccccn1 (stereo not drawn) : reported fluorescence artifact activation = ?
5.57

Give the measured fluorescence artifact activation of "COc1cc(-c2c(-c3ccc4c(c3)OCO4)noc2C)ccc1F" .
6.28

Reported fluorescence artifact activation for "COC(=O)c1ccc(Oc2c(F)c(F)nc(N3CCOCC3)c2F)cc1" : what is it?
-0.07

Requested field: fluorescence artifact activation. Item: "O=C(NCc1ccco1)c1cccc2c1C(=O)c1ccc(N3CCC(Cc4ccccc4)CC3)cc1S2(=O)=O"
24.3

I would be grateful if you could share the reported fluorescence artifact activation for "Cn1c(CN2CCCC2)nc2cc(NC(=O)COc3ccc([N+](=O)[O-])cc3)ccc21" .
0.82

Fill blank: measured fluorescence artifact activation of the molecule "O=C(Nc1ccc(N2CCN(C(=O)c3ccco3)CC2)cc1)c1ccc(F)cc1" is ____.
0.11

Fill in: fluorescence artifact activation of "O=C(CSc1ccc(Cl)cc1)Nc1cccc(NC(=O)c2ccco2)c1" is ___
0.39

Would you mind telling me what fluorescence artifact activation value was observed for O=C(c1ccccc1)N1C(=O)C(c2ccccc2)Oc2ccccc21 (stereo not drawn) ?
-0.12

Look up fluorescence artifact activation for this molecule: "O=C(CO/N=C/c1ccccc1OC(F)F)NCc1cccs1"
16.6

I'd like to know its fluorescence artifact activation. The molecule in question is "CCCn1c(CN2CCN(C(=O)OCC)CC2)nc2cc(NC(=O)CC)ccc21"
0.01

# lookup: fluorescence artifact activation of "O=C(NCCc1ccc(F)cc1)c1cccc2c1C(=O)c1ccc(N3CCC(Cc4ccccc4)CC3)cc1S2(=O)=O"
33.5

Requested field: fluorescence artifact activation. Item: "Cc1ccc(SCC(=O)OCC(=O)NCc2cccs2)cc1"
2.52

fluorescence artifact activation for "COc1ccccc1C(=O)Nc1nnn(C)n1" ?
-0.09

Given CCC1Oc2ccc(C)cc2N(CC(=O)NCc2cccs2)C1=O (stereo not drawn) , state its recorded fluorescence artifact activation.
-0.08

Tell me the measured fluorescence artifact activation of "Cc1nn(C)c(NC(=O)c2ccccc2Cl)c1Cl" , please.
18.7

fluorescence artifact activation lookup needed for "CN1CCN(CCNC(=O)Nc2ccc(Cl)cc2)CC1" , thanks.
3.25

What value of fluorescence artifact activation has been recorded for this entry: "O=C(NC(=S)Nc1ccc2oc(=O)ccc2c1)c1ccco1"
33.8

Which fluorescence artifact activation reading was recorded for the molecule CN(Cc1ccccc1)C(=O)c1ccc(NC(=O)Cc2ccc(NC(=O)C3CCCN(S(=O)(=O)c4cccc([N+](=O)[O-])c4)C3)cc2)cc1 (stereo not drawn) ?
0.65

Data request, read-out fluorescence artifact activation, for "CCN1/C(=C\C=C(C(C)=O)C(C)=O)Sc2ccccc21"
0.42

State the recorded fluorescence artifact activation for this entry: "O=C(NCc1ccco1)c1cccc2c1C(=O)c1ccc(N3CCCC3)cc1S2(=O)=O"
0.41

State the recorded fluorescence artifact activation for this entry: "O=C(c1ccncc1)N(Cc1ccccc1)Cc1nc2ccccc2c(=O)[nH]1"
0.03
